Each entry below lists one item and its recorded activation value.
- experimental.details: Wnt/beta-catenin pathway activators, primary screen, cell-based, plate reader, single point (AID 743398);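 also: 0% = neutral control wells and 100% = positive control wells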
- stated.conditions: Wnt/beta-catenin reporter cell assay, activator, at 9.35 µM, active compounds read high
About 3,600 (1.2%) of roughly 300,000 compounds were called active. This is one part of a sample in which actives are shown more often than they occur.
measurement.label: activation (%)

1. Cc1nonc1NC(=O)CSc1nc2ccccc2cc1C#N :: 24.4
2. O=c1oc2ccccc2c(=O)c2ccccc12 :: -3.29
3. COc1ccccc1N=Cc1c(O)c2ccccc2oc1=O :: 59
4. O=C(CSc1ccc([N+](=O)[O-])cn1)Nc1ccc(N2CCOCC2)c(Cl)c1 :: -0.66
5. Cc1nc2cc(NC(=O)CSc3nc4c(C)cccc4cc3C#N)ccc2s1 :: -2.44
6. CCCc1cc(C(=O)Nc2ccc(Cl)cn2)cs1 :: 39.5
7. COc1cc(N=Cc2c(O)c3ccccc3oc2=O)c(OC)cc1Cl :: -0.517
8. COC(=O)Cc1nnn2c1[C@H](C)[C@@H](OC)c1cc(Br)ccc1-2 :: 2.78
9. CCCOc1ccc(F)cc1-c1cc(C(=O)Nc2ccc(F)c(Cl)c2)[nH]n1 :: -0.991
10. Cc1cc(C)c(C#N)c(SCC(=O)Nc2ccccc2)n1 :: 39.1
11. CC12CCC(=O)C=C1CCC1C2C(O)CC2(C)C1CCC2(O)C(O)CO (stereo unspecified) :: 3.61

* * *

- experimental.details: Wnt/beta-catenin pathway activators, primary screen, cell-based, plate reader, single point (AID 743398);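 also: 0% = neutral control wells and 100% = positive control wells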
- stated.conditions: Wnt/beta-catenin reporter cell assay, activator, at 9.35 µM, active compounds read high
Screen size: about 300,000 compounds; about 3,600 (1.2%) were called active. The entries come from a sample that favours actives as a whole.
measurement.label: activation (%)

1. COC(=O)[C@]12CCCCC=C1N(Cc1cccc3ccccc13)C(=O)[C@H](CC(=O)N1CCOCC1)C2 :: 2.09
2. CN(C)C(=O)c1ccc(NC(=O)COC(=O)c2cc3c(s2)CCCCC3)cc1 :: 0.414
3. CCN(CC)C(=O)C1=C(C)N(Cc2ccc(F)cc2)C(=O)C(CC(=O)NCc2cccc3ccccc23)C1 (stereo not given) :: -3.01
4. CCCCCn1nnnc1-c1nc2cc3ccccc3cc2[nH]c1=O :: -1.88
5. CC(C)(C)S(=O)N1Cc2cc(C(=O)NCCCN3CCOCC3)nc(-c3cccc(-c4cc5ccccc5o4)c3)c2[C@H]1CCO (stereo not given in full) :: -3.72
6. CN(Cc1ccccc1)C(=O)c1cccc(C(=O)N(C)Cc2ccccc2)c1 :: 1.74
7. Cc1cc(C)cc(NC(=O)N(C)Cc2ccccc2)c1 :: 46
8. O=C(CCc1ccc(O)cc1)NN=Cc1cc(Br)ccc1O :: -2.84
9. CC(C)CNC(=O)c1cc(-c2ccc(Br)cc2)on1 :: 26.3
10. C=CCn1nc(C(=O)OCC)cc1-c1sc(NC(=O)c2ccccc2)nc1C :: -1.67

* * *

- experimental.details: Wnt/beta-catenin pathway activators, primary screen, cell-based, plate reader, single point (AID 743398);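 also: 0% = neutral control wells and 100% = positive control wells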
- stated.conditions: Wnt/beta-catenin reporter cell assay, activator, at 9.35 µM
Among all 300,000 compounds or so, about 3,600 (1.2%) were called active. Rule as the data show it: active = activation above about 30% (passing the limit was not always enough); inconclusive = no clear call, values can overlap the other calls. The full list was thinned out, with actives kept by preference.
Outcome codes: true (1) = active, false (0) = inactive

1. Cc1ccc(S(=O)(=O)NCCC(=O)Nc2ccc(C)c(Cl)c2)cc1C :: false (0)
2. Cc1ccn(-c2cccc(-n3ccc(C)n3)n2)n1 :: true (1)
3. O=C(Nc1ccc2c(c1)OCCO2)C1CCCN(c2ncccn2)C1 (stereo not given) :: true (1)
4. Cc1ccc(S(=O)(=O)N(CCc2ccccc2)c2ccc3c(c2)C2CC3CCN2C(=O)OCc2ccccc2)cc1 (stereo not given) :: false (0)
5. CCCCCCNC(=O)O[C@H]1CN(C(=O)OC(C)C)N(C(=O)OC(C)C)[C@@H]2CN(S(=O)(=O)c3ccc(C)cc3)C[C@]12O :: false (0)
6. c1cc(-c2ccc3[nH]ccc3c2)n2ccnc2c1 :: false (0)
7. Cc1ccc(S(=O)(=O)NCCC(=O)Nc2cccc(S(N)(=O)=O)c2)cc1C :: false (0)
8. CN[C@H]1C[C@H]2c3[nH]c4c(-c5ccccc5)cccc4c3CCN2C(=O)[C@H]1[C@H](C)O :: false (0)
9. Cc1cc(C)nc(N2CCC(C(=O)Nc3ccc4c(c3)OCCO4)CC2)n1 :: false (0)
10. Nc1[nH]c(C(=O)c2ccccc2)c(-c2ccc(Cl)cc2Cl)c1C(=O)c1ccccc1 :: false (0)

* * *

- experimental.details: Wnt/beta-catenin pathway activators, primary screen, cell-based, plate reader, single point (AID 743398);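 also: 0% = neutral control wells and 100% = positive control wells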
- stated.conditions: Wnt/beta-catenin reporter cell assay, activator, at 9.35 µM
Among all 300,000 compounds or so, about 3,600 (1.2%) were called active. Cut-off read from the data, not from the text of the source: active = activation above about 30% (passing the limit was not always enough); inconclusive = no clear call, values can overlap the other calls. What follows is part of a selection rich in actives, with near analogues and random picks from the rest.
Outcome codes: active, inactive

1) CS(=O)(=O)c1ccc(Cl)c(NC(=O)Nc2ccccc2)c1 :: inactive
2) COCCNC(=O)C(c1ccc(C)o1)N(Cc1ccccc1)C(=O)Cn1nnc2ccccc21 (stereo not given) :: active
3) COC(=O)[C@]12CCCCC=C1N(Cc1ccccc1)C(=O)[C@H](CC(=O)NCc1ccc(C)o1)C2 :: inactive
4) O=C(Nc1ccc(Cl)cn1)c1ccc2c(c1)OCCO2 :: inactive
5) CCNC(=O)C1(C)CCCN(Cc2noc(-c3ccccc3OC)n2)C1 (stereo not given) :: inactive
6) Cn1c(=O)c2cc(NC(=O)NCCc3cccs3)ccc2n1Cc1cccc(C(F)(F)F)c1 :: inactive
7) COc1ccccc1N(C(=O)Cn1nnc2ccccc21)C(C(=O)NCc1ccco1)c1ccc(C)o1 (stereo not given) :: inactive
8) Cc1ccc(NC(=O)Nc2ccccc2)c(Br)c1 :: active
9) CCC(C)(C)NC(=O)C(c1cccn1C)N(Cc1ccc(C)cc1)C(=O)Cn1nnc2ccccc21 (stereo not given) :: inactive
10) COc1ccc(-c2[nH]ncc2CN(C)Cc2cc(C)[nH]n2)c(F)c1 :: inactive

* * *

- experimental.details: Wnt/beta-catenin pathway activators, primary screen, cell-based, plate reader, single point (AID 743398);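 also: 0% = neutral control wells and 100% = positive control wells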
- stated.conditions: Wnt/beta-catenin reporter cell assay, activator, at 9.35 µM
Screen size: about 300,000 compounds; about 3,600 (1.2%) were called active. No stated cut-off is given here; in the data, active means activation above about 30% (passing the limit was not always enough); inconclusive means no clear call, values can overlap the other calls. The list comes from a sample in which actives are over-represented; it also holds close analogues and randomly drawn compounds.
Outcome codes: 1 = active, 0 = inactive

1. CCCn1c(N)c(C(=O)CSc2nnc(Cc3cccs3)n2C2CC2)c(=O)[nH]c1=O :: 0
2. O=c1oc2ccccc2cc1-c1csc(Nc2ccc(O)cc2)n1 :: 1
3. COCc1cc(=O)n2[nH]c(C)c(-c3ccccc3)c2n1 :: 1
4. COc1ccc(CC(N)c2csc(NC(=O)Nc3ccc(C(C)C)cc3)n2)cc1 (stereo not drawn) :: 0
5. Nc1ncnc2c1ncn2C1OC(CO)CC1O (stereo not drawn) :: 0
6. O=C(NCc1cccnc1)c1cccc(-c2cc3ccccc3oc2=O)c1 :: 0
7. CCCc1cc(=O)n2[nH]c(C)c(-c3ccc(Cl)cc3)c2n1 :: 0
8. O=[N+]([O-])c1cccc(C=NN=Cc2ccccc2O)c1 :: 1
9. Cc1ccc(C)c(CN2CCC(CNC(=O)C3CCCN(c4ncnc5c4nc4n5CCCCC4)C3)CC2)c1 (stereo not drawn) :: 0
10. O=C(CSc1nc2cccc(F)c2c(=O)n1-c1ccccc1)Nc1ccc2c(c1)CCC2 :: 0
11. C=CCNC(=O)c1ccc2c3n(nc2c1)-c1ccc(C)cc1CO3 :: 1
12. CCOC(=O)C=Cc1ccc(C(=O)OCC)[nH]1 :: 0
13. O=C(N/N=C/c1cccc([N+](=O)[O-])c1)c1ccncc1 :: 0
14. CCc1nc2ccc(C(=O)Nc3ccc(OC)c(OC)c3)cn2c1N(C)C(=O)c1cccc(OC)c1 :: 0
15. CCCOc1ccc(F)cc1-c1cc(C(=O)Nc2ccc(F)cc2)[nH]n1 :: 0
16. CCCCCc1c(Cc2ccccc2)ncn1CCc1ccccc1OC :: 0
17. CCCn1c(N)c(C(=O)CSc2nnc(-c3cccnc3)n2-c2ccc(C)cc2C)c(=O)[nH]c1=O :: 0
18. Cc1nc(C)c(-c2csc(NCCc3ccccc3)n2)s1 :: 0
19. CCCn1c(N)c(C(=O)CSc2nnc3n2CCCCC3)c(=O)[nH]c1=O :: 1
20. O=C(Nc1ccncc1)c1cc2ccccc2o1 :: 0
21. COCc1cc(=O)[nH]c(-c2ccc(C(F)(F)F)cc2)n1 :: 0
22. c1ccc(CNCc2ccc(CNCc3ccccc3)cc2)cc1 :: 0
23. O=C(Nc1c(Cl)c(C2CC2)nn1-c1ccccc1)C(Cl)(Cl)Cl :: 0

* * *

- experimental.details: Wnt/beta-catenin pathway activators, primary screen, cell-based, plate reader, single point (AID 743398);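 also: 0% = neutral control wells and 100% = positive control wells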
- stated.conditions: Wnt/beta-catenin reporter cell assay, activator, at 9.35 µM, active compounds read high
Screen size: about 300,000 compounds; about 3,600 (1.2%) were called active. For the sample, actives were picked, then their nearest neighbours and some compounds at random.
measurement.label: activation (%)

1. COc1ccc(-c2cnc3c(c2)C(=O)N([C@H](C)CO)C[C@@H](C)[C@H](CN(C)Cc2ccccc2)O3)cc1 :: -0.613
2. Fc1ccccc1-c1cc2cc3c(cc2cn1)OCO3 :: 40.7
3. COc1ccc2nc(-c3ccccn3)ccc2c1 :: 1.79
4. O=C(c1ccco1)N1CCN(C(=O)c2cc(-c3ccccc3F)no2)CC1 :: 1.22
5. COc1ccc(-c2cc3ncccc3cn2)cc1 :: 50.1
6. O=C(NCCCN1CCOCC1)c1cc(-c2ccccc2F)no1 :: 3.67
